# System under test: Potassium voltage-gated channel subfamily E member 1 (Homo sapiens)
Property: IC50

Return reported IC50; argument: `Cc1cc(-c2ccc(C(=O)[C@@H]3CCCC[C@H]3C(=O)Nc3cnn4c3C(=O)NCC4)cc2)[nH]n1`
> 33 µM

====

# Test protocol: Aqueous solubility of the compound in pH 7.4 phosphate buffer measured after 24 hrs by LC-MS/MS-based shake flask method
# Assay type: physicochemical
Property: solubility thermodynamic at 24 h (µM)
Numbers only here, please. The scale is µM.

Example entries begin here.
compound_structure=Cc1cc(-c2ccc(C(=O)[C@@H]3CCCC[C@H]3C(=O)Nc3cnn(C)c3C(=O)NOC(C)(C)C)cc2)[nH]n1 property="solubility thermodynamic at 24 h" measurement_unit=µM result_value=208
compound_structure=Cc1cc(-c2ccc(C(=O)[C@@H]3CCCC[C@H]3C(=O)Nc3cnn(C)c3C(N)=O)cc2)[nH]n1 property="solubility thermodynamic at 24 h" measurement_unit=µM result_value=475

Return reported solubility thermodynamic at 24 h; argument: `Cc1cc(-c2ccc(C(=O)[C@@H]3CCCC[C@H]3C(=O)Nc3c(C(N)=O)n[nH]c3C)cc2)[nH]n1`
402

Return reported solubility thermodynamic at 24 h; argument: `Cc1cc(-c2ccc(C(=O)[C@@H]3CCCC[C@H]3C(=O)Nc3c(C)nn(C)c3C(N)=O)cc2)n[nH]1`
399

Return reported solubility thermodynamic at 24 h; argument: `Cc1cc(-c2ccc(C(=O)[C@@H]3CCCC[C@H]3C(=O)Nc3cn(C)nc3C(N)=O)cc2)n[nH]1`
60

Return reported solubility thermodynamic at 24 h; argument: `CCn1ncc(NC(=O)[C@@H]2CCCC[C@H]2C(=O)c2ccc(-c3cc(C)n[nH]3)cc2)c1C(N)=O`
329

Return reported solubility thermodynamic at 24 h; argument: `Cc1cc(-c2ccc(C(=O)[C@@H]3CCCC[C@H]3C(=O)Nc3cnn(C)c3S(N)(=O)=O)cc2)[nH]n1`
79.7

Return reported solubility thermodynamic at 24 h; argument: `Cc1cc(-c2ccc(C(=O)[C@@H]3CCCC[C@H]3C(=O)Nc3cn(C)nc3C)cc2)n[nH]1`
225

====

Form field: Papp A→B (one value per entry).
# Test protocol: Passive apparent permeability across apical to basolateral side in human Caco2 cells at pH 6.5
# Format: ADME, cell-based
# Recorded conditions: Caco-2, pH 6.5
Numbers only here, please. The scale is ×10⁻⁶ cm/s.

compound_structure=Cc1cc(-c2ccc(C(=O)[C@@H]3CCCC[C@H]3C(=O)Nc3c(C(N)=O)n[nH]c3C)cc2)[nH]n1 result_value=0.15
compound_structure=Cc1cc(-c2ccc(C(=O)[C@@H]3CCCC[C@H]3C(=O)Nc3cnn(C)c3S(N)(=O)=O)cc2)[nH]n1 result_value=9
compound_structure=Cc1cc(-c2ccc(C(=O)[C@@H]3CCCC[C@H]3C(=O)Nc3cnn(C)c3C(=O)NOC(C)(C)C)cc2)[nH]n1 result_value=14.7
compound_structure=CCn1ncc(NC(=O)[C@@H]2CCCC[C@H]2C(=O)c2ccc(-c3cc(C)n[nH]3)cc2)c1C(N)=O result_value=9.2

Return reported Papp A→B; argument: `Cc1cc(-c2ccc(C(=O)[C@@H]3CCCC[C@H]3C(=O)Nc3cnn(C)c3C(=O)O)cc2)[nH]n1`
0.21

Return reported Papp A→B; argument: `Cc1cc(-c2ccc(C(=O)[C@@H]3CCCC[C@H]3C(=O)Nc3c(C)nn(C)c3C(N)=O)cc2)n[nH]1`
1.4

Return reported Papp A→B; argument: `Cc1cc(-c2ccc(C(=O)[C@@H]3CCCC[C@H]3C(=O)Nc3cn(C)nc3C)cc2)n[nH]1`
20.5

Return reported Papp A→B; argument: `Cc1cc(-c2ccc(C(=O)[C@@H]3CCCC[C@H]3C(=O)Nc3cnn4c3C(=O)NCC4)cc2)[nH]n1`
3.7

Return reported Papp A→B; argument: `Cc1cc(-c2ccc(C(=O)[C@@H]3CCCC[C@H]3C(=O)Nc3cnn(C)c3C(N)=O)cc2)[nH]n1`
2.6

====

# Test protocol: Clearance in Beagle dog at 2 umol/kg, iv
# Type: ADME, Canis lupus familiaris
# Recorded conditions: in vivo
Property: clearance (mL/min/kg)
Numbers only here, please. The scale is mL/min/kg.

compound_structure=Cc1cc(-c2ccc(C(=O)[C@@H]3CCCC[C@H]3C(=O)Nc3cnn(C)c3S(N)(=O)=O)cc2)[nH]n1 measurement_unit=mL/min/kg result_value=2.5

Return reported clearance; argument: `Cc1cc(-c2ccc(C(=O)[C@@H]3CCCC[C@H]3C(=O)Nc3cnn4c3C(=O)NCC4)cc2)[nH]n1`
7.6

====

# System under test: Arachidonate 5-lipoxygenase-activating protein (Homo sapiens, UniProt P20292)
# Sequence (P20292 whole entry): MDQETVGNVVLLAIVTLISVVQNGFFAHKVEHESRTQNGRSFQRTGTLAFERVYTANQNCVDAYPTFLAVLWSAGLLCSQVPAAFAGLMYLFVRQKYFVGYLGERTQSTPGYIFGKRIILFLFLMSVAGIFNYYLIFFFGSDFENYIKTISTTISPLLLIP
# Test protocol: Inhibition of [3H]MK0591 binding to human FLAP expressed in […] cell membranes measured after 60 to 80 mins by microbeta scintillation counting method
Form field: pIC50 (one value per entry).
In plain terms, pIC50 is the concentration in mol/L turned into minus its base-10 logarithm.

compound_structure=Cc1cc(-c2ccc(C(=O)[C@@H]3CCCC[C@H]3C(=O)Nc3cnn(C)c3C(=O)NOC(C)(C)C)cc2)[nH]n1 property=pIC50 result_value=8.24
compound_structure=Cc1cc(-c2ccc(C(=O)[C@@H]3CCCC[C@H]3C(=O)Nc3cn(C)nc3C)cc2)n[nH]1 property=pIC50 result_value=7.23
compound_structure=Cc1cc(-c2ccc(C(=O)[C@@H]3CCCC[C@H]3C(=O)Nc3cnn(CC(N)=O)c3)cc2)[nH]n1 property=pIC50 result_value=6.62
compound_structure=Cc1cc(-c2ccc(C(=O)[C@@H]3CCCC[C@H]3C(=O)Nc3c(C)nn(C)c3C(N)=O)cc2)n[nH]1 property=pIC50 result_value=7.00

Form field - read-out: pIC50; system: Arachidonate 5-lipoxygenase-activating protein (Homo sapiens, UniProt P20292); submitted item: `Cc1cc(-c2ccc(C(=O)[C@@H]3CCCC[C@H]3C(=O)Nc3cnn(C)c3C(=O)O)cc2)[nH]n1`
7.77

Form field - read-out: pIC50; system: Arachidonate 5-lipoxygenase-activating protein (Homo sapiens, UniProt P20292); submitted item: `Cc1cc(-c2ccc(C(=O)[C@@H]3CCCC[C@H]3C(=O)Nc3cnn(C)c3C(=O)NO)cc2)[nH]n1`
7.33

====

# System under test: Potassium voltage-gated channel subfamily A member 5 (Homo sapiens)
# Sequence (P22460 whole entry): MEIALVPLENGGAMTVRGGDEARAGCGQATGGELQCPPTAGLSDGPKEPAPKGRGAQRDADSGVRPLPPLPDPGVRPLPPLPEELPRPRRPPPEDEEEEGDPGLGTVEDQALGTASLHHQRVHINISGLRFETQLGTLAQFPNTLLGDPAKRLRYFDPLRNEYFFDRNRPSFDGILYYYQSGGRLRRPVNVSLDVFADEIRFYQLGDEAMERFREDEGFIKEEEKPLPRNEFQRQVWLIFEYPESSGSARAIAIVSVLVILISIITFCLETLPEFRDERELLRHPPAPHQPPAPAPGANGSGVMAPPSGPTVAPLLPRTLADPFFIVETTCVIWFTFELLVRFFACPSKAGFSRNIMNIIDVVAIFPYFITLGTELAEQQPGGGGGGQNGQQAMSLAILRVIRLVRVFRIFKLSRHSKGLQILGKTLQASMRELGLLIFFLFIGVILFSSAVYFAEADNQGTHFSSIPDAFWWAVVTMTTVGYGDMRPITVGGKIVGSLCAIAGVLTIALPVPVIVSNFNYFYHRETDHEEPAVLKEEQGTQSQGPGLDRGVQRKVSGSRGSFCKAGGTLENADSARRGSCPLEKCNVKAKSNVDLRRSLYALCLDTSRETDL
Property: IC50

Form field - read-out: IC50; system: Potassium voltage-gated channel subfamily A member 5 (Homo sapiens); submitted item: `Cc1cc(-c2ccc(C(=O)[C@@H]3CCCC[C@H]3C(=O)Nc3cnn(C)c3S(N)(=O)=O)cc2)[nH]n1`
> 32 µM

====

# System under test: Bile salt export pump (Homo sapiens)
# Sequence (O95342 whole entry): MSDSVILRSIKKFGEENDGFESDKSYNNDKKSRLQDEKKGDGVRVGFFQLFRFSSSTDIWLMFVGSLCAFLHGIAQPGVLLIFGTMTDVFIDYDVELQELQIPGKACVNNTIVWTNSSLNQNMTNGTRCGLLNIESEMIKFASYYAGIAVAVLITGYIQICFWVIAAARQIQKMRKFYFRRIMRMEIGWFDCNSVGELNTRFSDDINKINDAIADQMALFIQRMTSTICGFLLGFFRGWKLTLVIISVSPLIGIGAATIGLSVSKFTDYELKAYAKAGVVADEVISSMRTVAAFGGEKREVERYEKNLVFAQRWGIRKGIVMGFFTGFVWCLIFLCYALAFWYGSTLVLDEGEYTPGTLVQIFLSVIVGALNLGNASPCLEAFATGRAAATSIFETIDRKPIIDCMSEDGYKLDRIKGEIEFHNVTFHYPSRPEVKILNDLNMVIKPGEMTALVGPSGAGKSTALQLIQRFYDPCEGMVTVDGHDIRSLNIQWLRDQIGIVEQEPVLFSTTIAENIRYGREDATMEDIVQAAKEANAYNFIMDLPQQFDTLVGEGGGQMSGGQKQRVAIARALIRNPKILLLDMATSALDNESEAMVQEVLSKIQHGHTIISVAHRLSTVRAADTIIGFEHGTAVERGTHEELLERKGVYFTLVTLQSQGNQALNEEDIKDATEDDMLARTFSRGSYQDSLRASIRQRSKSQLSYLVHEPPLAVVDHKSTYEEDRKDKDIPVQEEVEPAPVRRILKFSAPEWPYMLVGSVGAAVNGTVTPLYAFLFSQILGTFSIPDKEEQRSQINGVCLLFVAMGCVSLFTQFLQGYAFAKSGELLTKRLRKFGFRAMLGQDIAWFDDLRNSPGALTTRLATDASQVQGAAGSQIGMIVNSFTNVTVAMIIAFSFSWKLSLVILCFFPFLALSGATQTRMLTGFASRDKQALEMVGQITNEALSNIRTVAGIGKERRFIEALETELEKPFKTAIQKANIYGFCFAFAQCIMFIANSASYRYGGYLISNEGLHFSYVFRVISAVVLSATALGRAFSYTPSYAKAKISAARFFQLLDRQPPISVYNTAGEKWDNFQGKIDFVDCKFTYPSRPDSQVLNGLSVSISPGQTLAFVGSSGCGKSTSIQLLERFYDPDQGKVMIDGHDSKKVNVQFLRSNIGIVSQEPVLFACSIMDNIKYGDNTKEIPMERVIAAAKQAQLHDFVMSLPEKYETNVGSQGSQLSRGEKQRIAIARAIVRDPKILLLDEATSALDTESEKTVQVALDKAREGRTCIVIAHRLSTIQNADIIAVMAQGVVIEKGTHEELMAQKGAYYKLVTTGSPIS
# Test protocol: Inhibition of recombinant human BSEP expressed in baculovirus infected Sf21 insect cell vesicles assessed as reduction in NBD-taurocholate uptake by fluorescence assay
pIC50: −log10 of the molar value.
Property: pIC50

Return reported pIC50; argument: `Cc1cc(-c2ccc(C(=O)[C@@H]3CCCC[C@H]3C(=O)Nc3cnn4c3C(=O)NCC4)cc2)[nH]n1`
3.47 to 4.13

====

Form field: half-life (one value per entry).
# Test protocol: Half life in rat at 1 umol/kg, iv
# Type: ADME
# Recorded conditions: in vivo
Numbers only here, please. The scale is h.

compound_structure=Cc1cc(-c2ccc(C(=O)[C@@H]3CCCC[C@H]3C(=O)Nc3cnn4c3C(=O)NCC4)cc2)[nH]n1 measurement_unit=h result_value=0.45

Next:
Return reported half-life; argument: `Cc1cc(-c2ccc(C(=O)[C@@H]3CCCC[C@H]3C(=O)Nc3cnn(C)c3C(=O)NOC(C)(C)C)cc2)[nH]n1`
4.7

====

# System under test: Voltage-gated inwardly rectifying potassium channel KCNH2 (Homo sapiens, UniProt Q12809)
# Sequence (Q12809 whole entry): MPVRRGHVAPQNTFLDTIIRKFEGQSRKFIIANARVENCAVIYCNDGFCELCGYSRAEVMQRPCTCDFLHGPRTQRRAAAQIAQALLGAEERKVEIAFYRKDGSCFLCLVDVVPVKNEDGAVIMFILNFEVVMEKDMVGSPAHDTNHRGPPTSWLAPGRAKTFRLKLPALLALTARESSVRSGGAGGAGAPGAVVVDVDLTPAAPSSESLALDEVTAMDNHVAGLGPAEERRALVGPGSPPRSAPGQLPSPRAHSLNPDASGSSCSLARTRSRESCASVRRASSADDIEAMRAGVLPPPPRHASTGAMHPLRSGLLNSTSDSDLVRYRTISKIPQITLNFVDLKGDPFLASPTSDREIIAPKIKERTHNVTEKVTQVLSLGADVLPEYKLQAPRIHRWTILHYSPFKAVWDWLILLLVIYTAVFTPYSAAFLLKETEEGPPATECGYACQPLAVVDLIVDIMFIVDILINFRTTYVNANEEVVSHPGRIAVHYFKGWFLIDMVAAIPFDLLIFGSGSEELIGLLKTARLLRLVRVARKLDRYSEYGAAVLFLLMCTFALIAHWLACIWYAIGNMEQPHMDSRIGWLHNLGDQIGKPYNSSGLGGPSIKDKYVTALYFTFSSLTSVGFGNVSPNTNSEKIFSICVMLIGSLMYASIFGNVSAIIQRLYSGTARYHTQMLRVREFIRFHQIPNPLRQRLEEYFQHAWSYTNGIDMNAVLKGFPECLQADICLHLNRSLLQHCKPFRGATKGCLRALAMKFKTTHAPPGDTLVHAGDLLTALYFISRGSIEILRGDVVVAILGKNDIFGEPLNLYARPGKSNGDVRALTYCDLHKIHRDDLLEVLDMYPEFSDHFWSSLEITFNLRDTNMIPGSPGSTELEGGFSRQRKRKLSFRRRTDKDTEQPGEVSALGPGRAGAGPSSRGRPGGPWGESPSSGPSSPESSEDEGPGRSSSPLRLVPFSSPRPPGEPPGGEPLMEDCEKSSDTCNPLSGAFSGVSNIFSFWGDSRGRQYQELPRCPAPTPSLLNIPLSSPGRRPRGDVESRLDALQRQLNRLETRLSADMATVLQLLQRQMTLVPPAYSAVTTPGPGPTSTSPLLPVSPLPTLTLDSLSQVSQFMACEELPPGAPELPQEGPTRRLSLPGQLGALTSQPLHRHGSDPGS
Form field: IC50 (one value per entry).

compound_structure=Cc1cc(-c2ccc(C(=O)[C@@H]3CCCC[C@H]3C(=O)Nc3cnn(C)c3C(=O)NOC(C)(C)C)cc2)[nH]n1 system_under_test="Voltage-gated inwardly rectifying potassium channel KCNH2 (Homo sapiens, UniProt Q12809)" result_value="> 33 µM"
compound_structure=Cc1cc(-c2ccc(C(=O)[C@@H]3CCCC[C@H]3C(=O)Nc3cnn4c3C(=O)NCC4)cc2)[nH]n1 system_under_test="Voltage-gated inwardly rectifying potassium channel KCNH2 (Homo sapiens, UniProt Q12809)" result_value="> 33 µM"

Next:
Return reported IC50; argument: `Cc1cc(-c2ccc(C(=O)[C@@H]3CCCC[C@H]3C(=O)Nc3cnn(C)c3S(N)(=O)=O)cc2)[nH]n1`
> 33 µM

====

Form field: IC50 (one value per entry).
# System under test: Cytochrome P450 2D6 (Homo sapiens, UniProt P10635)
# Sequence (P10635 whole entry): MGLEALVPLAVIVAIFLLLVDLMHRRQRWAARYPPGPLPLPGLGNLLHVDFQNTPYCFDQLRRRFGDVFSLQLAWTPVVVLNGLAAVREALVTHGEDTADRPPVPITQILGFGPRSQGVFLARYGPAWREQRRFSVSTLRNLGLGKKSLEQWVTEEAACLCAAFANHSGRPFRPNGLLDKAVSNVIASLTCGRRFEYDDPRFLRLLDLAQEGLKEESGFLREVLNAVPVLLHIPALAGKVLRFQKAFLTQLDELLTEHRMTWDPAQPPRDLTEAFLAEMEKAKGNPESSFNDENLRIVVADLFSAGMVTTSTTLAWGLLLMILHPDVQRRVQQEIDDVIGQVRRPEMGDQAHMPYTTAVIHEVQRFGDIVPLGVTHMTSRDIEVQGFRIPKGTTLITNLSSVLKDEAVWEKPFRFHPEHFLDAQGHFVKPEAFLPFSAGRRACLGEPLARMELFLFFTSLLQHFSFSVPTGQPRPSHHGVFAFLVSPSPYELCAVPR
# Test protocol: Inhibition of recombinant human CYP2D6 expressed in Escherichia coli using MAMC as substrate by fluorescence assay

compound_structure=Cc1cc(-c2ccc(C(=O)[C@@H]3CCCC[C@H]3C(=O)Nc3cnn4c3C(=O)NCC4)cc2)[nH]n1 property=IC50 result_value="> 20 µM"
compound_structure=Cc1cc(-c2ccc(C(=O)[C@@H]3CCCC[C@H]3C(=O)Nc3cnn(C)c3S(N)(=O)=O)cc2)[nH]n1 property=IC50 result_value="> 20 µM"

Next:
Return reported IC50; argument: `Cc1cc(-c2ccc(C(=O)[C@@H]3CCCC[C@H]3C(=O)Nc3cnn(C)c3C(=O)NOC(C)(C)C)cc2)[nH]n1`
> 20 µM

The measurements presented in this section are drawn from ChEMBL document CHEMBL4393654.
